Tested on: CDC2L2;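 further: KINOMEscan kinase panel screen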
Test Context: concentration: 1 μM, replicates: in singlicate; n = 1
Binary call on %Inh with cut-off 2%: strictly below means 1 (yes), and equality or higher means 0 (no).

Answered examples (5):
COc1cc2nccc(Nc3ccc(NC(=O)c4ccc(C)cc4)c(O)c3)c2cc1OC.Cl [GW440132] ... 0 (no)
COc1ccccc1CNC(=O)c1cc(C(=O)c2ccccc2C)c[nH]1 [GSK364507] ... 0 (no)
COc1ccc(Nc2nccc(-c3cccc(NC(=O)c4cc5cc(F)ccc5[nH]4)c3)n2)cc1 [GSK1229782] ... 0 (no)
Cc1cccc(-c2cc(Nc3ccncc3)c3ccccc3n2)n1 [GSK223675] ... 0 (no)
CN1C(=O)C(Nc2ccc(Cl)c(C(=O)O)c2)=C(c2ccc(Cl)cc2)C1=O [SB-404290] ... 1 (yes)

Strictly below 2%: is that where %Inh of Cn1ccc2ncnc(Oc3ccc(NC(=O)Nc4ccccc4)cc3)c21 sits?
1 (yes)

Strictly below 2%: is that where %Inh of Cc1cccc(-c2nc(C)cc(Nc3ccncc3)n2)n1 [GSK257997] sits?
0 (no)

Strictly below 2%: is that where %Inh of CCCc1ccc(S(=O)(=O)NC2CCN(c3ccnc(Nc4ccc(F)cc4)n3)C2)cc1 (stereo not drawn) [GSK1379715] sits?
1 (yes)
